Target: interaction between the E1 and E2 proteins of HPV11/HPV6 (Human papillomavirus 11, UniProt P04014+P04015)
Sequence (P04014 whole entry): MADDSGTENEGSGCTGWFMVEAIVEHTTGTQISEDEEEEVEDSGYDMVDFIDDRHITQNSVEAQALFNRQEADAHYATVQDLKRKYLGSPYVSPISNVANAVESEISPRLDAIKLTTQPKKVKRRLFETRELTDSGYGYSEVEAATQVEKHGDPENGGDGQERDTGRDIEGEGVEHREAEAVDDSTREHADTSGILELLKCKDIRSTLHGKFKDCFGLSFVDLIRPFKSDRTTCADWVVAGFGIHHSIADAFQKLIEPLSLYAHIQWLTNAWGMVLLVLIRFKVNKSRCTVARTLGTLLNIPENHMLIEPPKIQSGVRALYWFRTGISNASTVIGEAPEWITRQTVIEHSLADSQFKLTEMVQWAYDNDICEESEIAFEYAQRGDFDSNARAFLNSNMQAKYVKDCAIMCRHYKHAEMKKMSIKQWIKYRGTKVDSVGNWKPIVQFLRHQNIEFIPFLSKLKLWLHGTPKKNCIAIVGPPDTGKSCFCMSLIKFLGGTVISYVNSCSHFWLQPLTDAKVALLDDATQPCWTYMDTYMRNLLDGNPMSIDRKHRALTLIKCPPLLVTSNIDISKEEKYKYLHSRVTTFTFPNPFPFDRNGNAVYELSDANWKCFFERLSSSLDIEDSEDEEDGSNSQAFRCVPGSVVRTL
Sequence (P04015 whole entry): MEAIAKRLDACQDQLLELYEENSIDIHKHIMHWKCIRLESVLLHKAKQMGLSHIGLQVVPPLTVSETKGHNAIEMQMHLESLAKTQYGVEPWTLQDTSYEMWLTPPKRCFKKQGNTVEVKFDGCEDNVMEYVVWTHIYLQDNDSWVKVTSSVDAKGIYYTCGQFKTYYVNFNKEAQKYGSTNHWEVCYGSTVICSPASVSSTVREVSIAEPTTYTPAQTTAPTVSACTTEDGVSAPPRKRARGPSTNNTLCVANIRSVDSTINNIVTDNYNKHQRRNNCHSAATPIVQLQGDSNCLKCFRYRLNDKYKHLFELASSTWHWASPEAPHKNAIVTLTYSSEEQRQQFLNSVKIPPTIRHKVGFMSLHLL
Experiment: E1/E2 interaction test (luciferase reporter, mammalian two-hybrid type)
pIC50: −log10 of the molar value.
ASSAY ENDPOINT: pIC50

Bench note: what pIC50 did COc1cc(CC(=O)NN(c2ccc(Cc3ccccc3)cc2)c2c(C)cccc2N2CCCCC2)c(Br)cc1C(=O)O [Compound (Ia)] show? ~6.00

---

Test system: E1 and E2 protein-dependent viral replication of HPV11
Experiment: Replication test (replicon reporter vector, luciferase)
Type: cell-based
Conditions: Homo sapiens, read-out: IC50 on E1 and E2 protein-dependent viral replication of HPV11 in cells
ASSAY ENDPOINT: IC50

Bench note: what IC50 did `COc1cc(CC(=O)NN(c2ccc(Cc3ccccc3)cc2)c2c(C)cccc2N2CCCCC2)c(Br)cc1C(=O)O` show? ~1000 nM
